Biological target: HIV-1 protease (Human immunodeficiency virus type 1 group M subtype B)
Construct: 2.6 nM of HIV-1 protease
Test: Assay for inhibitory effect on HIV protease (residual enzyme activity, HPLC of substrate cleavage)
Format: biochemical
Details: HIV-1 protease 2.6 nM, pH 5.5; inhibition constant
parameter: Ki (nM)
API: value field is a number in nM; no unit string.

Qu. Find Ki (HIV-1 protease (Human immunodeficiency virus type 1 group M subtype B)) for the entry CC(C)[C@H](NC(=O)OCc1ccccc1)C(=O)N[C@@H](Cc1ccccc1)[C@H]1O[C@H]1CCc1ccccc1
Ans. 91

Qu. What do you have for NC(=O)C[C@H](NC(=O)c1ccc2ccccc2n1)C(=O)N[C@@H](Cc1ccccc1)[C@H]1O[C@H]1CNC(=O)[C@H](Cc1ccccc1)NC=O ?
Ans. 1400

Qu. What do you have for CC(C)[C@@H](CCCc1ccccc1)NC(=O)C[C@@H]1O[C@@H]1[C@H](Cc1ccccc1)NC(=O)[C@H](CC(N)=O)NC(=O)c1ccc2ccccc2n1 ?
Ans. 950

Qu. What do you have for CC(C)[C@H](NC(=O)C[C@@H]1O[C@@H]1[C@H](Cc1ccccc1)NC(=O)[C@H](CC(N)=O)NC(=O)c1ccc2ccccc2n1)C(=O)NCc1ccccn1 ?
Ans. 81

---

Molecular target: HIV-1 protease (Human immunodeficiency virus type 1 group M subtype B, UniProt P04585)
Construct: 2.6 nM of HIV-1 protease
Assay: Assay for inhibitory effect on HIV protease (residual enzyme activity, HPLC of substrate cleavage)
Assay type: biochemical
Settings: HIV-1 protease 2.6 nM, pH 5.5; rate constant of covalent bond formation; read-out: kina (converted)
Give measured log10 of kinact for each item. Keep answers brief.
Recall that a logarithmic scale is used here: each number is log10 of kinact in s⁻¹.

Qu. Using the record for CC[C@H](C)[C@H](NC(=O)OCc1ccccc1)C(=O)N[C@@H](Cc1ccccc1)[C@H]1O[C@H]1CCc1ccccc1 [compound 54] , report its log10 of kinact.
Ans. -2.12

Qu. What do you have for NC(=O)C[C@H](NC(=O)COc1ccc(F)cc1F)C(=O)N[C@@H](Cc1ccccc1)[C@H]1O[C@H]1CCc1ccccc1 [compound 58] ?
Ans. -3.30

Qu. What do you have for CC(C)[C@H](CCCc1ccccc1)NC(=O)C[C@@H]1O[C@@H]1[C@H](Cc1ccccc1)NC(=O)[C@H](CC(N)=O)NC(=O)c1ccc2ccccc2n1 [compound 45] ?
Ans. -1.40

Qu. What do you have for CNC(=O)[C@@H](NC(=O)C[C@@H]1O[C@@H]1[C@H](Cc1ccccc1)NC(=O)[C@H](CC(N)=O)NC(=O)c1ccc2ccccc2n1)C(C)C [compound 30] ?
Ans. -2.48

Qu. What do you have for NC(=O)C[C@H](NC(=O)c1ccc2ccccc2n1)C(=O)N[C@@H](Cc1ccccc1)[C@H]1O[C@H]1CCc1ccccc1 [compound 62] ?
Ans. -2.74

Qu. What do you have for CC[C@H](C)[C@H](NC(=O)C[C@@H]1O[C@@H]1[C@H](Cc1ccccc1)NC(=O)[C@H](CC(N)=O)NC(=O)c1ccc2ccccc2n1)C(=O)NO [compound 40] ?
Ans. -2.38

---

Target: HIV-1 protease (Human immunodeficiency virus type 1 group M subtype B)
Construct: 2.6 nM of HIV-1 protease
Assay: Assay for inhibitory effect on HIV protease (residual enzyme activity, HPLC of substrate cleavage)
Type: biochemical
Conditions: HIV-1 protease 2.6 nM, pH 5.5; inhibition constant
Give measured Ki for each item. Keep answers brief.
API: value field is a number in µM; no unit string.

Qu. Using the record for NC(=O)CC[C@H](NC(=O)OCc1ccccc1)C(=O)N[C@@H](Cc1ccccc1)[C@H]1O[C@H]1CCc1ccccc1 , report its Ki.
Ans. 2.2

Qu. What do you have for NC(=O)C[C@H](NC(=O)OCc1ccccc1)C(=O)NC[C@@H]1O[C@@H]1[C@H](Cc1ccccc1)NC(=O)[C@H](CC(N)=O)NC(=O)OCc1ccccc1 ?
Ans. 0.11

Qu. What do you have for CNC(=O)[C@@H](NC(=O)C[C@@H]1O[C@@H]1[C@H](Cc1ccccc1)NC(=O)[C@H](CC(N)=O)NC(=O)c1ccc2ccccc2n1)C(C)C ?
Ans. 0.022

Qu. What do you have for NC(=O)C[C@H](NC(=O)[C@H](Cc1ccccc1)NC(=O)CCN1CCOCC1)C(=O)N[C@@H](Cc1ccccc1)[C@H]1O[C@H]1CCc1ccccc1 ?
Ans. 0.55
